target_desc: Gal6S(b1-4)GlcNAc
measurement_notes: glycan array binding signal (z-score within array); higher = stronger binding
condition_label: glycan notation: IUPAC condensed, linker removed
The sample as a whole holds a higher share of the strongest signals than the screen did.
observable: glycan array binding signal (z-score)

Ask: State the recorded glycan array binding signal (z-score) for this entry: LlpA1 (Pseudomonas fluorescens), Q4KHC3 (protein) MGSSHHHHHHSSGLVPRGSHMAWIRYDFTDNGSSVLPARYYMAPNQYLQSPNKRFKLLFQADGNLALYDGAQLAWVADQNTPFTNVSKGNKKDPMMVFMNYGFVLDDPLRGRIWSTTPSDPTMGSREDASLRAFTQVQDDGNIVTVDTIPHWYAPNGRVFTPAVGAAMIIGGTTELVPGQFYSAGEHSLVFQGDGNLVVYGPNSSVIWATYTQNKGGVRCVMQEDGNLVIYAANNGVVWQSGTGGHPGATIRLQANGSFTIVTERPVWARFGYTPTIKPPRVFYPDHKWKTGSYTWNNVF
Result: 0.079
